# System: Bacillus subtilis
# Protocol Summary: Antibacterial activity against Bacillus subtilis ATCC 6633 at 5 ug after 48 hrs by silica gel plate-based INT-formazan method
# Type: functional, organism-based
The source made the active and inactive calls. The rule behind the calls is not given here.
Choose the fitting class; nothing outside active, inactive is accepted.

Here's what some known entries look like.
Test Smiles: COc1cc([C@@H]2c3cc4c(c(O)c3C[C@H]3COC(=O)[C@@H]32)OCO4)cc(OC)c1O
Classification: active

Test Smiles: COc1cc([C@@H]2c3cc4c(c(O)c3C[C@H]3COC(=O)[C@@H]32)OCO4)cc(OC)c1OC
Classification: inactive

Test Smiles: COc1cc([C@@H]2c3cc4c(cc3C[C@H]3COC(=O)[C@@H]32)OCO4)cc(OC)c1O
Classification: inactive

Test Smiles: CC1=CC(=O)[C@@H](O)[C@]2(C)[C@H]3[C@@]4(O)OC[C@@]35[C@@H](C[C@@H]12)OC(=O)C[C@H]5[C@@H](C)[C@H]4O
Classification: inactive

Test Smiles: CC1=CC(=O)[C@@H](O)[C@]2(C)[C@H]3[C@]4(O)OC[C@]35[C@H]([C@@H](C)[C@H]4O)[C@@H](O)C(=O)O[C@@H]5C[C@@H]12
Classification: inactive

Could you check what this test reported for CC[C@@]1(O)C(=O)OCc2c1cc1n(c2=O)Cc2cc3cc(O)ccc3nc2-1 ?
inactive

Could you check what this test reported for CC[C@@]1(O)C(=O)OCc2c1cc1n(c2=O)Cc2cc3ccccc3nc2-1 ?
inactive

Could you check what this test reported for COc1cc([C@@H]2c3cc4c(cc3[C@H](O)[C@H]3COC(=O)[C@H]23)OCO4)cc(OC)c1OC ?
active

Could you check what this test reported for CC[C@@]1(O)C(=O)OCc2c1cc1n(c2=O)Cc2cc3c(OC)cccc3nc2-1 ?
inactive

Could you check what this test reported for CC(=O)O[C@H]1C(=O)O[C@@H]2C[C@H]3C(C)=CC(=O)[C@@H](O)[C@]3(C)[C@H]3[C@]4(O)OC[C@]32[C@@H]1[C@@H](C)[C@H]4O ?
inactive

Could you check what this test reported for COC(=O)[C@]12OC[C@]34[C@H]([C@@H](O)[C@@H]1O)[C@@]1(C)[C@H](O)C(=O)C=C(C)[C@@H]1C[C@H]3OC(=O)[C@H](OC(=O)CC(C)C)[C@@H]24 ?
inactive

Numbers sourced from ChEMBL document CHEMBL1150701.
